FYI, the data here is from patent US10087178B2.

Hi there, I'd appreciate the recorded pEC50 for every entry that follows.
tested on: HIV-1 NL4-3 strain; assay: Evaluation of antiviral activity: acute infection system of MT-4 cell with HIV-1 NL4-3 strain; format: cell-based; details: Human immunodeficiency virus 1, NL43, MT4, 120 h, MT-4 cells infected with HIV-1 NL4-3 strain (MOI 0.05), cultured 5 days, Cell Titer-Glo; read-out: antiviral activity (EC50)
Counter-ions that a name gives are not always drawn.
Give bare numbers, as −log10 of the molar value.

See these solved cases before continuing.
Form: compound = COc1ccc(CNC(=O)c2cn3c(c(O)c2=O)C(=O)N(C)C[C@]32C[C@@H](CO)C2)c(F)c1Cl [Example S49] ; pEC50 = 7.19

Form: compound = COC[C@H]1C[C@@]12CN(C)C(=O)c1c(O)c(=O)c(C(=O)NCc3cc(N4CCCC4=O)cc(Cl)c3F)cn12 [Example T34] ; pEC50 = 7.64

Form: compound = CCN1C[C@@]2(C[C@@H]2COC)n2cc(C(=O)NCc3ccc(F)cc3F)c(=O)c(O)c2C1=O [Example T2, hydrochloride] ; pEC50 = 8.38

Form: compound = CCOC[C@H]1C[C@]2(CN(C)C(=O)c3c(O)c(=O)c(C(=O)NCc4cccc(Cl)c4F)cn32)C1 [Example S39, hydrochloride] ; pEC50 = 8.46

Consider the following items and state reported pEC50 for each.
1. COC[C@H]1C[C@]2(CN(C)C(=O)c3c(OC(=O)c4cccc(C(=O)O)c4)c(=O)c(C(=O)NCc4cccc(Cl)c4F)cn32)C1 [Example 40]
2. CCC(=O)Oc1c2n(cc(C(=O)NCc3cccc(Cl)c3F)c1=O)[C@]1(CN(C)C2=O)C[C@H](OC)C1 [Example S65]
3. COC[C@H]1C[C@@]12CN(C(C)C)C(=O)c1c(O)c(=O)c(C(=O)NCc3cccc(Cl)c3F)cn12 [Example T12, hydrochloride]
4. CCCO[C@H]1C[C@@]2(CN(C)C(=O)c3c(O)c(=O)c(C(=O)NCc4cccc(Cl)c4F)cn32)C1 [Example S42, hydrochloride]
5. CC(C)N1C[C@]2(C[C@H](C(=O)N(C)C)C2)n2cc(C(=O)NCc3ccc(F)cc3F)c(=O)c(O)c2C1=O [Example S31, hydrochloride]

[out]
1. 9.00
2. 9.00
3. 8.24
4. 8.37
5. 7.62

Consider the following items and state reported pEC50 for each.
1. COC[C@H]1C[C@]2(CN(C)C(=O)c3c(OC(=O)C(C)C)c(=O)c(C(=O)NCc4cccc(Cl)c4F)cn32)C1 [Example S68]
2. COC[C@H]1C[C@]2(CN(C)C(=O)c3c([O][Ca][O]c4c5n(cc(C(=O)NCc6cccc(Cl)c6F)c4=O)[C@]4(CN(C)C5=O)C[C@H](COC)C4)c(=O)c(C(=O)NCc4cccc(Cl)c4F)cn32)C1 [Example 30]
3. CCC(=O)Oc1c2n(cc(C(=O)NCc3cccc(Cl)c3F)c1=O)[C@]1(CN(C)C2=O)C[C@H](COC)C1 [Example S67]
4. CO[C@H]1C[C@]2(CN(C)C(=O)c3c(O)c(=O)c(C(=O)NCc4cccc(Cl)c4F)cn32)C1 [Example 23]
5. CN1C[C@]2(C[C@@H](O)C2)n2cc(C(=O)NCc3cccc(Cl)c3F)c(=O)c(O)c2C1=O [Example S26, hydrochloride]

[out]
1: 9.15; 2: 8.96; 3: 9.05; 4: 8.80; 5: 8.47

Consider the following items and state reported pEC50 for each.
1. CN(C)C(=O)[C@@H]1C[C@]12CN(C1CC1)C(=O)c1c(O)c(=O)c(C(=O)NCc3cccc(Cl)c3F)cn12 [Example T33]
2. CCN1C[C@@]2(C[C@@H]2C(=O)O)n2cc(C(=O)NCc3ccc(F)cc3F)c(=O)c(O)c2C1=O [Example T7, hydrochloride]
3. COC[C@H]1C[C@]2(CN(C)C(=O)c3c(OC(=O)c4ccccc4)c(=O)c(C(=O)NCc4cccc(Cl)c4F)cn32)C1 [Example S70]
4. CCOC[C@H]1C[C@@]12CN(C)C(=O)c1c(O)c(=O)c(C(=O)NCc3ccc(OC)c(Cl)c3F)cn12 [Example T31]
5. COC[C@H]1C[C@]2(CN(C)C(=O)c3c(OC(C)=O)c(=O)c(C(=O)NCc4cccc(Cl)c4F)cn32)C1 [Example 37]
6. CCOC[C@H]1C[C@]2(CN(CC)C(=O)c3c(O)c(=O)c(C(=O)NCc4cccc(Cl)c4F)cn32)C1 [Example S48, hydrochloride]

[out]
1. 8.48
2. 7.82
3. 8.85
4. 7.92
5. 9.15
6. 8.37

Consider the following items and state reported pEC50 for each.
1. COC[C@H]1C[C@@]2(CN(C(C)C)C(=O)c3c(O)c(=O)c(C(=O)NCc4ccc(F)cc4F)cn32)C1 [Example S25, hydrochloride]
2. COC[C@H]1C[C@@]12CN(C)C(=O)c1c(O)c(=O)c(C(=O)NCc3cccc(Cl)c3F)cn12 [Example T16, hydrochloride]
3. CC(C)O[C@H]1C[C@@]2(CN(C)C(=O)c3c(O)c(=O)c(C(=O)NCc4cccc(Cl)c4F)cn32)C1 [Example S40, hydrochloride]

[out]
1: 8.15; 2: 8.38; 3: 8.64

Consider the following items and state reported pEC50 for each.
1. COC[C@H]1C[C@@]12CN(C)C(=O)c1c(O)c(=O)c(C(=O)NCc3cc(OC)cc(Cl)c3F)cn12 [Example T21]
2. CC(C)N1C[C@]2(C[C@H](OS(C)(=O)=O)C2)n2cc(C(=O)NCc3ccc(F)cc3F)c(=O)c(O)c2C1=O [Example S35, methanesulfonate hydrochloride]

[out]
8.21
8.14

====

system: HIV-1 NL4-3 strain; assay: Evaluation of antiviral activity: acute infection system of MT-4 cell with HIV-1 NL4-3 strain; assay type: cell-based; details: Human immunodeficiency virus 1, NL43, MT4, 120 h, MT-4 cells infected with HIV-1 NL4-3 strain (MOI 0.05), cultured 5 days, Cell Titer-Glo; read-out: antiviral activity (EC50)
Where a name gives a salt, the structure may show the parent alone.
Hi there, I'd appreciate the recorded pEC50 for every entry that follows.
Give bare numbers, as −log10 of the molar value.

Form: molecule = CO[C@H]1C[C@]2(Cn3cc(C(=O)NCc4ccc(F)cc4F)c(=O)c(O)c3C(=O)N2C(C)C)C1 [Example S53, hydrochloride] ; pEC50 = 8.00

Form: molecule = CC(C)N1C[C@]2(C[C@H](CO)C2)n2cc(C(=O)NCc3ccc(F)cc3F)c(=O)c(O)c2C1=O [Example S22, hydrobromide] ; pEC50 = 8.30

Form: molecule = CCCCCCCCCCCCCCCC(=O)Oc1c2n(cc(C(=O)NCc3cccc(Cl)c3F)c1=O)[C@]1(CN(C)C2=O)C[C@H](COC)C1 [Example S69] ; pEC50 = 9.00

Consider the following items and state reported pEC50 for each.
1. CCN1C(=O)c2c(O)c(=O)c(C(=O)NCc3ccc(F)cc3F)cn2C[C@@]12C[C@@H]2COC [Example T40, hydrochloride]
2. COc1ccc(CNC(=O)c2cn3c(c(O)c2=O)C(=O)N(C)C[C@]32C[C@H](CO)C2)c(F)c1Cl [Example S50]
3. CCN1C(=O)c2c(O)c(=O)c(C(=O)NCc3cccc(Cl)c3F)cn2C[C@]12C[C@@H](COC)C2 [Example S59, hydrochloride]
4. CCN1C[C@@]2(C[C@H]2COC)n2cc(C(=O)NCc3cccc(Cl)c3F)c(=O)c(O)c2C1=O [Example T30]
5. CO[C@H]1C[C@@]2(Cn3cc(C(=O)NCc4cccc(Cl)c4F)c(=O)c(O)c3C(=O)N2C)C1 [Example S62, hydrochloride]

[out]
[8.72, 7.43, 8.40, 8.36, 8.34]

Consider the following items and state reported pEC50 for each.
1. COC[C@H]1C[C@@]12Cn1cc(C(=O)NCc3ccc(F)cc3F)c(=O)c(O)c1C(=O)N2C(C)C [Example T41]
2. COC[C@H]1C[C@]2(CN(C)C(=O)c3c(OC(=O)c4ccc(C)cc4)c(=O)c(C(=O)NCc4cccc(Cl)c4F)cn32)C1 [Example S72]
3. CCN1C[C@@]2(C[C@@H]2COC)n2cc(C(=O)NCc3cccc(Cl)c3F)c(=O)c(O)c2C1=O [Example T19]

[out]
8.66
9.05
8.42

====

test system: HIV-1 NL4-3 strain; assay: Evaluation of antiviral activity: acute infection system of MT-4 cell with HIV-1 NL4-3 strain; assay type: cell-based; settings: Human immunodeficiency virus 1, NL43, MT4, 120 h, MT-4 cells infected with HIV-1 NL4-3 strain (MOI 0.05), cultured 5 days, Cell Titer-Glo; read-out: antiviral activity (EC50)
Where a name gives a salt, the structure may show the parent alone.
Recorded metric: EC50 (nM)
One number for each entry, in nM.

See these solved cases before continuing.
Form: molecule = CCN1C[C@]2(C[C@@H](CO)C2)n2cc(C(=O)NCc3cccc(Cl)c3F)c(=O)c(O)c2C1=O [Example S44, hydrochloride] ; EC50 = 11

Form: molecule = CCN1C(=O)c2c(O)c(=O)c(C(=O)NCc3cccc(Cl)c3F)cn2C[C@]12C[C@H](COC)C2 [Example S61, hydrochloride] ; EC50 = 5.1

Form: molecule = `CC(C)N1C(=O)c2c(O)c(=O)c(C(=O)NCc3cccc(Cl)c3F)cn2C[C@@]12C[C@@H]2CO` ; EC50 = 4

Consider the following items and state reported EC50 for each.
1. CCN1C[C@@]2(C[C@@H]2C(=O)NC)n2cc(C(=O)NCc3ccc(F)cc3F)c(=O)c(O)c2C1=O [Example T8, hydrochloride]
2. CC(C)O[C@H]1C[C@]2(CN(C(C)C)C(=O)c3c(O)c(=O)c(C(=O)NCc4ccc(F)cc4F)cn32)C1 [Example S33, hydrochloride]
3. CCN1C[C@]2(C[C@H](CO)C2)n2cc(C(=O)NCc3cccc(Cl)c3F)c(=O)c(O)c2C1=O [Example S46, hydrochloride]

[out]
[6.1, 6.4, 4.4]

Consider the following items and state reported EC50 for each.
1. CN1C(=O)c2c(O)c(=O)c(C(=O)NCc3cccc(Cl)c3F)cn2C[C@]12C[C@H]2CO
2. CCO[C@H]1C[C@]2(Cn3cc(C(=O)NCc4cccc(Cl)c4F)c(=O)c(O)c3C(=O)N2CC)C1 [Example S57, hydrochloride]
3. CN1C[C@]2(C[C@H](CO)C2)n2cc(C(=O)NCc3cccc(Cl)c3F)c(=O)c(O)c2C1=O [Example S37, hydrochloride]
4. CCO[C@H]1C[C@]2(CN(C)C(=O)c3c(O)c(=O)c(C(=O)NCc4ccc(F)cc4F)cn32)C1 [Example S51, hydrochloride]
5. COC[C@H]1C[C@]2(CN(C(C)C)C(=O)c3c(O)c(=O)c(C(=O)NCc4ccc(F)cc4F)cn32)C1 [Example S23, hydrochloride]
6. CC(C)O[C@H]1C[C@@]2(CN(C(C)C)C(=O)c3c(O)c(=O)c(C(=O)NCc4ccc(F)cc4F)cn32)C1 [Example S32, hydrochloride]
7. CCN1C(=O)c2c(O)c(=O)c(C(=O)NCc3cccc(Cl)c3F)cn2C[C@]12C[C@H](CO)C2 [Example S60, hydrochloride]

[out]
7.2
4.7
3.8
2.4
6.3
6.6
13
